Provenance of the data: PubChem BioAssay AID437

# tgt: Inositol-trisphosphate 3-kinase C (Homo sapiens) (UniProt Q96DU7)
# Sequence (Q96DU7 whole entry, looked up): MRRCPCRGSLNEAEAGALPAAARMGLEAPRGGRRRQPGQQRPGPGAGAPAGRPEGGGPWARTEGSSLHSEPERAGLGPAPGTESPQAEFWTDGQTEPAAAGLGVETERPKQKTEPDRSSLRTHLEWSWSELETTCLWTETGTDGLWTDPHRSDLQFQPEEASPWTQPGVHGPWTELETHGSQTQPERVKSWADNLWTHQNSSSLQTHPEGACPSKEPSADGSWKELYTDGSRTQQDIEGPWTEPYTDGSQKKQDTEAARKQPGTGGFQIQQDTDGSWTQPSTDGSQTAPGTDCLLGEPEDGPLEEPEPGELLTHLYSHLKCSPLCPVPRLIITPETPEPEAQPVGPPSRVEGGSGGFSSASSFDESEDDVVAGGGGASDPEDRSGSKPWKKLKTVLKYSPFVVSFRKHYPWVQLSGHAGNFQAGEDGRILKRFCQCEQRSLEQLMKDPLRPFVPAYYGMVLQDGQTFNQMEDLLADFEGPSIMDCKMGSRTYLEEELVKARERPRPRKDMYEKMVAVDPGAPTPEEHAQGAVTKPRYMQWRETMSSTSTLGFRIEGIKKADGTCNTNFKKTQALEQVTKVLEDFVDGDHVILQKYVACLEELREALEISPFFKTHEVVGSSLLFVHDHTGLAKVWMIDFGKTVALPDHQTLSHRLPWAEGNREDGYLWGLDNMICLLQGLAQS
# protocol_description: IP3 3-kinase C ligand binding via Tm shift – biophysical, DSF, SYPRO orange, purified human protein (AID 437)
# particulars: DSF thermal shift, at 20 µM, protein 5.9 µM, buffer 300 mM NaCl, 50 mM Hepes, 10% glycerol, 2 mM TCEP pH 7.5, active compounds read high
parameter_measured: Tm shift

Illustrative cases are given below, each with its answer.
CCOc1cc(/C=C(\C#N)CON)cc(CSc2ccccc2)c1O
4.2 Celsius
Nc1ncnc2c1C(I)CN2[C@@H]1O[C@H](CO)C(O)C1O (some centres not stated)
4.7 Celsius
NC1=N/C(=C2/CCNC(=O)c3[nH]c(Br)cc32)C(=O)N1
3 Celsius
O=C1Nc2ccc(I)cc2/C1=C/c1cc(Br)c(O)c(Br)c1
10.4 Celsius
O=c1c2ccccc2[nH]c(=S)n1CCN1CCC(=C(c2ccc(F)cc2)c2ccc(F)cc2)CC1
6.4 Celsius

-- ask Could you share what Tm shift was measured for O=C1c2c(O)cc(O)cc2OC(c2ccc(O)c(O)c2)C1O (configuration not stated) , tested on Inositol-trisphosphate 3-kinase C (Homo sapiens) (UniProt Q96DU7)?
-- reply 13.3 Celsius

-- ask And O=C1Cc2c([nH]c3ccc(Br)cc23)-c2ccccc2N1 ?
-- reply 3.1 Celsius

-- ask Same question for O=c1c(-c2ccc(O)cc2)coc2cc(O)cc(O)c12 please.
-- reply 3.3 Celsius

-- ask Repeat with NC(O)(O)c1ccc(N=Nc2c(O)[nH]c3ccc(Cl)cc23)cc1
-- reply 3.7 Celsius

-- ask And COC1=CC(/C=C/C(=O)CC(=O)/C=C/c2ccc(O)c(OC)c2)=CCC1O (configuration not stated) ?
-- reply 6.6 Celsius

-- ask Entry to check: Brc1c(Br)c(Br)c2n[nH]nc2c1Br
-- reply 4.6 Celsius

-- ask Try NC1=CC2N=CN=C(Nc3cccc(Br)c3)C2C=C1N (configuration not stated) next.
-- reply 5.2 Celsius

---

Consider the following compounds and their measured Tm shift readings.
# tgt: Inositol-trisphosphate 3-kinase C (Homo sapiens) (UniProt Q96DU7)
# protocol_description: IP3 3-kinase C ligand binding via Tm shift – biophysical, DSF, SYPRO orange, purified human protein (AID 437)
# particulars: DSF thermal shift, at 20 µM, protein 5.9 µM, buffer 300 mM NaCl, 50 mM Hepes, 10% glycerol, 2 mM TCEP pH 7.5, active compounds read high

Below are worked cases with known answers.
Oc1ccc(-c2nc(-c3ccc(F)cc3)c(-c3ccncc3)[nH]2)cc1
4.4 Celsius
CNC(=O)c1cc(Oc2ccc(NC(=O)Nc3ccc(C)c(C(F)(F)F)c3)cc2)ccn1
5.7 Celsius
C=S(C)c1ccc(CSc2nc(-c3ccc(F)cc3)c(-c3ccncc3)[nH]2)cc1 (stereo not given)
5.6 Celsius
CC(C)(C)c1nc2c3cc[nH]c(=O)c3c3cc(F)ccc3c2[nH]1
3.3 Celsius

Could you now look at the following compound, please?
-- ask Name the recorded Tm shift for CN(C)S(O)(O)c1ccc2c(c1)/C(=C/c1cc3c([nH]1)CCCC3)C(=O)N2 .
-- reply 3.2 Celsius
